Tested on: Raji
Assay: Evaluation of antitumor activity against thymidine kinase deficient Raji cell line
Assay type: functional
Conditions: Homo sapiens, read-out: ID50 (the source's name)
# IC50 per record follows
Express it in mg/L; write the number only.

Reference set (3 entries):
>>> assayresult("N.O=c1[nH]c(=O)n([C@H]2C[C@@H]3O[PH](O)(O)OC[C@H]3O2)cc1F")
19
>>> assayresult("O=c1[nH]c(=O)n([C@H]2C[C@H](O)[C@@H](COP(=O)(O)O)O2)cc1F [5-FLUORODEOXYURIDYLATE]")
2.41
>>> assayresult("O=c1[nH]c(=O)n([C@H]2C[C@H](O)[C@@H](CO)O2)cc1C(F)(F)F")
180

Next:
Prompt: Please indicate IC50 recorded for O=c1[nH]c(=O)n([C@H]2C[C@H](O)[C@@H](CO)O2)cc1F
Response: 1.55
